test system: Anti-secretory (gastric secretion volume); test: Anti-secretory test (Shay et al); format: in vivo; conditions: Dose 30 mg/kg
property: Anti-secretory (Shay et al), % change in volume (%)

smiles code: Cc1[nH]cnc1CSc1nccn1C
measurement: -87

smiles code: C[n+]1ccccc1SCc1c[nH]cn1
measurement: -71

smiles code: Cc1[nH]cnc1CSc1ccncc1
measurement: -60

smiles code: C[n+]1ccccc1SCCN1CCCCC1
measurement: -35

smiles code: Cc1[nH]cnc1CSc1cccc[n+]1C
measurement: -65

smiles code: C[n+]1ccccc1SCc1cccnc1
measurement: -55

smiles code: C[n+]1ccccc1SCc1ccccn1
measurement: -31
